# EXPERIMENTAL TARGET: calf thymus R1 (calf)
Square brackets hold non-standard residues; d marks the D form. Ends that are not written are not given here. Phe(4-N3) = [N-]=[N+]=Nc1ccc(C[C@H](N)C(=O)O)cc1
Each item that follows carries a reported Percent RI (percent relative inhibitory potency), mammalian RR activity.

{"columns": ["BINDER", "MEASUREMENT"],
 "data": [
  ["Ac-FTLDLDF [Ac-(FTLDLDF)]", "35%"]
]}

Which Percent RI (percent relative inhibitory potency), mammalian RR activity value belongs to Ac-FTLDAEF [Ac-(FTLDAEF)] ?
1.7%

Ac-FTLDGDF [Ac-(FTLDGDF)] ?
9%

Ac-FTLDAAF [Ac-(FTLDAAF)] ?
28%

Ac-NSFTLDADF ?
100%

Ac-FTLDF [Ac-(FTLDF) (3 & 4 pos. del.)] ?
2.5%

Ac-FTLDADFAA ?
2.1%

Ac-[Phe(4-N3)]TLDADF [Ac-(F(4'-N3)TLDADF)] ?
10%

Ac-FTVDADF [Ac-(FTVDADF)] ?
35%
